Just for reference, PubChem BioAssay AID1004 is where these values come from.

Parameter viability: see the listing below.
experiment: viability of HCT116 lacking mutant beta-catenin – cell-based, DP diverse set, validation, pilot screen (AID 1004)
condition_details: HCT116 (mutant beta-catenin deleted) viability, CellTiter-Glo, 60 h; at 10 µM; active compounds read low
Activity calls are given as the source filed them.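 How the source made its calls: active means viability at 10 µM of 29.74% or lower, 3 SD below the compound median; inactive means the rest.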

Worked set:
>  <compound>
C[C@@H]1CC2C3CCC4=CC(=O)C=CC4(C)[C@@]3(F)[C@@H](O)CC2(C)[C@@]1(O)C(=O)CO (stereo partly specified)

>  <viability>
99.5% (inactive)

$$$$
>  <compound>
[O][C@H]1[C@@H](O)[C@@H](CO)O[C@@H](O[C@@H]2[C@@H]3OC[C@H]2O[C@H](O[C@@H]2[C@@H](O)[C@H](C[C@@H]4[C@@H]5OC[C@H]4O[CH][C@@H]5O)O[C@H](CO)[C@@H]2OS(=O)(=O)O)[C@@H]3OS(=O)(=O)O)[C@@H]1O

>  <viability>
96.4% (inactive)

$$$$
>  <compound>
O=C1CCC(N2C(=O)c3ccccc3C2=O)C(=O)N1 (stereo unspecified)

>  <viability>
96.1% (inactive)

$$$$
>  <compound>
COc1cc(CNC(=O)CCCC/C=C/C(C)C)ccc1O

>  <viability>
95.2% (inactive)

$$$$
>  <compound>
OCCN(CCO)c1nc(N2CCCCC2)c2nc(N(CCO)CCO)nc(N3CCCCC3)c2n1

>  <viability>
109% (inactive)

$$$$

Data request, read-out viability, for `COc1ccc(-c2cc(C(=O)O)no2)cc1` 99.2% (inactive)
